Biological target: Pyruvate kinase PKLR (Rattus norvegicus) (UniProt P12928)
Sequence (P12928 whole entry): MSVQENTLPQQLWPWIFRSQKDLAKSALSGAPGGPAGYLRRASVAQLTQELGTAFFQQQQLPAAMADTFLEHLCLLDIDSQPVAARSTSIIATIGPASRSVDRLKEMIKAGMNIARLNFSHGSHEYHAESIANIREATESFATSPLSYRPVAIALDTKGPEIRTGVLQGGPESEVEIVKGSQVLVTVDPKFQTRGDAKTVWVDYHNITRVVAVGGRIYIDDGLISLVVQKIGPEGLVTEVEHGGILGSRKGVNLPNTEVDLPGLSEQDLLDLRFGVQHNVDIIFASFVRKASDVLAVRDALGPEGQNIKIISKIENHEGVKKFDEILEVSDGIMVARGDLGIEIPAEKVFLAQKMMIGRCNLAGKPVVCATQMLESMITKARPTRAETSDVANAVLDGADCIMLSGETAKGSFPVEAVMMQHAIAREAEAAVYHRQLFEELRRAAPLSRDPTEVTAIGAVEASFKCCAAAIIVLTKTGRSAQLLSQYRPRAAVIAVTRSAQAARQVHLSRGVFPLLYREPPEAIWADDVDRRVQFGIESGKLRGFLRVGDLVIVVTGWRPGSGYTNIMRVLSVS
Test: Inactivation of Sprague-Dawley rat pyruvate kinase L using PEP as substrate at 5 mM at pH 7 after 8 hrs by spectrophotometric analysis
The source made the active and inactive calls. The rule behind the calls is not given here.
assay endpoint: inhibition

Answered cases to consult:
test_smiles=O=C(CI)NCCCCCCCCNc1ncnc2c1ncn2[C@@H]1O[C@H](COP(=O)(O)OP(=O)(O)O)[C@@H](O)[C@H]1O tested_system="Pyruvate kinase PKLR (Rattus norvegicus) (UniProt P12928)" reported_result=80%
test_smiles=CC(=O)NCCCCCCCCNc1ncnc2c1ncn2[C@@H]1O[C@H](COP(=O)(O)OP(=O)(O)O)[C@@H](O)[C@H]1O tested_system="Pyruvate kinase PKLR (Rattus norvegicus) (UniProt P12928)" reported_result=inactive
test_smiles=O=C(CI)NCCCNc1ncnc2c1ncn2[C@@H]1O[C@H](COP(=O)(O)OP(=O)(O)O)[C@@H](O)[C@H]1O tested_system="Pyruvate kinase PKLR (Rattus norvegicus) (UniProt P12928)" reported_result=inactive
test_smiles=O=C(CI)NCCCCNc1ncnc2c1ncn2[C@@H]1O[C@H](COP(=O)(O)OP(=O)(O)O)[C@@H](O)[C@H]1O tested_system="Pyruvate kinase PKLR (Rattus norvegicus) (UniProt P12928)" reported_result=inactive

Now for the compound whose inhibition we want.
compound "O=C(CI)NCCNc1ncnc2c1ncn2[C@@H]1O[C@H](COP(=O)(O)OP(=O)(O)O)[C@@H](O)[C@H]1O" , inhibition observed: inactive

====

Assay: Retardation factor of the compound using 1-butanol-acetic acid-water as solvent system by paper chromatography
Format: physicochemical
Conditions: buffer
assay endpoint: Rf

test_smiles=O=C(CI)NCCCCCCCNc1ncnc2c1ncn2[C@@H]1O[C@H](COP(=O)(O)OP(=O)(O)O)[C@@H](O)[C@H]1O reported_result=0.68
test_smiles=O=C(CI)NCCNc1ncnc2c1ncn2[C@@H]1O[C@H](COP(=O)(O)OP(=O)(O)O)[C@@H](O)[C@H]1O reported_result=0.53
test_smiles=O=C(CI)NCCCCNc1ncnc2c1ncn2[C@@H]1O[C@H](COP(=O)(O)OP(=O)(O)O)[C@@H](O)[C@H]1O reported_result=0.58

====

Target: Pyruvate kinase PKM (Rattus norvegicus) (UniProt P11980)
Sequence (P11980 whole entry): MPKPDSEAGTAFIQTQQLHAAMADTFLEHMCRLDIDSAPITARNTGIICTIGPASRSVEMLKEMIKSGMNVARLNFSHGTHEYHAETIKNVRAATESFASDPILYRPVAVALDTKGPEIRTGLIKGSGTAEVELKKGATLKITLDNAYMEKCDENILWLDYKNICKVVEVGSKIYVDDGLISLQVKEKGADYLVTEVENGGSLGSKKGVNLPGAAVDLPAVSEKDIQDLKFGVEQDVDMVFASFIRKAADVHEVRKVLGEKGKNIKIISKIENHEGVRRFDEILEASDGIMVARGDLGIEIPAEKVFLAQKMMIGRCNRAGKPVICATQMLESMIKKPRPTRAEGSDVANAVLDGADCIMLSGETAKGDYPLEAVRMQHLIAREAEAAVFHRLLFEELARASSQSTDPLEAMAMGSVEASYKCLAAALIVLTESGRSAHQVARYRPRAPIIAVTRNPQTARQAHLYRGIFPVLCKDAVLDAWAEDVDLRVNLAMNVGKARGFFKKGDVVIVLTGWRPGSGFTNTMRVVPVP
Assay: Activity at Sprague-Dawley rat pyruvate kinase M assessed as initial enzyme reaction velocity at 0.21 mM by spectrophotometric analysis relative to ADP
assay endpoint: Activity (%)

test_smiles=O=C(CI)NCCCCCCCNc1ncnc2c1ncn2[C@@H]1O[C@H](COP(=O)(O)OP(=O)(O)O)[C@@H](O)[C@H]1O assay_endpoint=Activity readout_units=% reported_result=25

1 = O=C(CI)NCCCCCCNc1ncnc2c1ncn2[C@@H]1O[C@H](COP(=O)(O)OP(=O)(O)O)[C@@H](O)[C@H]1O
2 = O=C(CI)NCCCCCNc1ncnc2c1ncn2[C@@H]1O[C@H](COP(=O)(O)OP(=O)(O)O)[C@@H](O)[C@H]1O
3 = O=C(CI)NCCCCCCCCNc1ncnc2c1ncn2[C@@H]1O[C@H](COP(=O)(O)OP(=O)(O)O)[C@@H](O)[C@H]1O
Exercise: // ascending sort on recorded Activity Your reply should list the labels following the order given in the request.
Key: 2, 1, 3

====

Assay: Retardation factor of the compound using 1-butanol-acetic acid-water as solvent system by paper chromatography
Assay type: physicochemical
Conditions: buffer
assay endpoint: Rf

test_smiles=O=C(CI)NCCCNc1ncnc2c1ncn2[C@@H]1O[C@H](COP(=O)(O)OP(=O)(O)O)[C@@H](O)[C@H]1O reported_result=0.55
test_smiles=O=C(CI)NCCCCCCNc1ncnc2c1ncn2[C@@H]1O[C@H](COP(=O)(O)OP(=O)(O)O)[C@@H](O)[C@H]1O reported_result=0.65
test_smiles=O=C(CI)NCCCCCNc1ncnc2c1ncn2[C@@H]1O[C@H](COP(=O)(O)OP(=O)(O)O)[C@@H](O)[C@H]1O reported_result=0.6
test_smiles=O=C(CI)NCCCCCCCCNc1ncnc2c1ncn2[C@@H]1O[C@H](COP(=O)(O)OP(=O)(O)O)[C@@H](O)[C@H]1O reported_result=0.71
